# Test system: M14 melanoma
# assayNotes: NCI tumour cell line growth inhibition, 48 h; in the data active = GI50 below about 0.43 µM; inactive = the rest
Entry note: the call must match one of YES for active, NO for inactive

Observe how each entry below is paired with its result.
INSERT INTO measurements (compound, grouplabel) VALUES
  ('CN1CCN(C(=O)[C@@]2(C)CC[C@]3(C)CC[C@]4(C)C(=CC[C@@H]5[C@@]6(C)CC[C@H](OC(=O)c7cccnc7)C(C)(C)[C@@H]6CC[C@]54C)[C@@H]3C2)CC1', 'NO'),
  ('CCCCNP1(NCCCC)=NP(NCCCC)(NCCCC)=NP(NCCCC)(NCCCC)=NP(NCCCC)(NCCCC)=N1', 'NO'),
  ('CC[C@@]1(O)C(=O)OCc2c1cc1n(c2=O)Cc2cc3cccc(N)c3nc2-1', 'NO'),
  ('O=c1oc2ccc(I)cc2c(=O)n1-c1ccc(I)cc1F', 'NO'),
  ('COc1ccc2[nH]cc(C3(c4c[nH]c5ccc(OC)cc45)C(=O)Nc4ccc(Cl)cc43)c2c1', 'NO');

[in] Hello, I am checking results. What call was entered for CC1OC(OC2C(O)C(OCCc3ccc(O)c(O)c3)OC(CO)C2OC(=O)/C=C/c2ccc(O)c(O)c2)C(O)C(O)C1O (configuration not stated) ?
[out] NO

[in] So what was the verdict on CCN(CC)CCOc1ccc(NC(=O)C(C(C)C)N2C(=O)/C(=C/c3ccc(Br)cc3)SC2=S)cc1 (configuration not stated) in this test?
[out] NO

[in] Could you kindly confirm the outcome this assay logged for CN(C)C[C@@H]1CCn2cc(c3ccccc32)C2=C(C(=O)NC2=O)c2cn(c3ccccc23)CCO1 ?
[out] NO

[in] Hey, what did the test say about O=C1/C=C/[C@@H](O)[C@@H]2C[C@@H](O)C[C@H]2/C=C/CCC[C@H](CCc2ccc(NC(=S)Nc3ccc4c(c3)C(=O)OC43c4ccc(O)cc4Oc4cc(O)ccc43)cc2)O1 ?
[out] YES

[in] Would you mind telling me which call this test gave CN(CCCCCCCCNc1ccnc2ccccc12)Cc1ccc(-c2ccc(-c3ccc(C#N)cc3)s2)cc1 ?
[out] NO
